B1: HDAC6 (parent)
chain: ACAQLATGAACRLVEAVLSGEVLN

Variants of: B1
experimental-protocol: protein stability index of a GFP-peptide fusion (GPS, HEK-293T) (PSI 1-6); higher = more stable;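 also: lentivirally expressed fusions sorted by FACS into six bins by GFP to DsRed ratio, PSI derived from sequencing read proportions per bin multiplied by bin number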
experimental-parameters: c terminus: a fixed tail appended
The entries below come with measured protein stability index values attached.
endpoint-label: protein stability index

mutation_notation=V14T endpoint_label="protein stability index" result=1.75
mutation_notation=V14K endpoint_label="protein stability index" result=1.97
mutation_notation=L13R endpoint_label="protein stability index" result=2.5
mutation_notation=G20F endpoint_label="protein stability index" result=3.97
mutation_notation=A10Q endpoint_label="protein stability index" result=1.71
mutation_notation=A10G endpoint_label="protein stability index" result=1.43
mutation_notation=E21C endpoint_label="protein stability index" result=2.87
mutation_notation=V14Q endpoint_label="protein stability index" result=2.74
mutation_notation=E21Y endpoint_label="protein stability index" result=3.01
mutation_notation=L23Y endpoint_label="protein stability index" result=3.97
mutation_notation=G8M endpoint_label="protein stability index" result=1.28
mutation_notation=N24K endpoint_label="protein stability index" result=2.61
mutation_notation=A10E endpoint_label="protein stability index" result=1.82
mutation_notation=A1E endpoint_label="protein stability index" result=3.75
mutation_notation=V22P endpoint_label="protein stability index" result=2.42
mutation_notation=A16L endpoint_label="protein stability index" result=2.77
mutation_notation=G20S endpoint_label="protein stability index" result=2.89
mutation_notation=L13P endpoint_label="protein stability index" result=2.53
mutation_notation=L23V endpoint_label="protein stability index" result=1.26
mutation_notation=C11K endpoint_label="protein stability index" result=2.29
mutation_notation=L13D endpoint_label="protein stability index" result=3.58
mutation_notation=G8S endpoint_label="protein stability index" result=1.94
mutation_notation=V22H endpoint_label="protein stability index" result=4.01
mutation_notation=C11R endpoint_label="protein stability index" result=1.78
mutation_notation=L13T endpoint_label="protein stability index" result=1.93
mutation_notation=A9R endpoint_label="protein stability index" result=3
mutation_notation=E15P endpoint_label="protein stability index" result=1.05
mutation_notation=Q4P endpoint_label="protein stability index" result=1.04
mutation_notation=C2P endpoint_label="protein stability index" result=1.82
mutation_notation=V22K endpoint_label="protein stability index" result=1.01
mutation_notation=A6K endpoint_label="protein stability index" result=1.19
mutation_notation=V14A endpoint_label="protein stability index" result=2.05
mutation_notation=C2N endpoint_label="protein stability index" result=1.21
mutation_notation=E15N endpoint_label="protein stability index" result=2.52
mutation_notation=A10Y endpoint_label="protein stability index" result=1.49
mutation_notation=S19A endpoint_label="protein stability index" result=4.12
mutation_notation=L23Q endpoint_label="protein stability index" result=1.05
mutation_notation=L18Y endpoint_label="protein stability index" result=3.82
mutation_notation=E21N endpoint_label="protein stability index" result=3.96
mutation_notation=A6T endpoint_label="protein stability index" result=1.39
mutation_notation=E21D endpoint_label="protein stability index" result=2.6
mutation_notation=V14D endpoint_label="protein stability index" result=2.53
mutation_notation=L18M endpoint_label="protein stability index" result=3.05
mutation_notation=A1K endpoint_label="protein stability index" result=1.92
mutation_notation=V17H endpoint_label="protein stability index" result=2.75
mutation_notation=A6D endpoint_label="protein stability index" result=2.11
